For each entry below, report its % inhibition of human Factor 7 mRNA value.
# Test system: human Factor 7 mRNA
# assay-method-text: Inhibition of human Factor 7 mRNA by 2-10-2 MOE shortmers in HepB3 cells, electroporation, 1,000 nM
# Assay type: cell-based
# settings: electroporation, 1,000 nM oligonucleotide, approximately 24 hours, relative to untreated control cells
In the oligonucleotide strings, read from the 5' end, every base follows the letter of its sugar. An asterisk marks phosphorothioate; unmarked linkages are phosphodiester. Other units and linkages are bracketed, terminal groups are in braces. A string of capitals states the bases alone. e = 2'-O-(2-methoxyethyl) (MOE); [5mC] = 5-methylcytosine; d = 2'-deoxy (DNA)
Numbers only, in %.

> print(dat)
                                  substance                    measurement.label  numeric.result
1  435501 (antisense eT*eA*d[5mC]*dT*dG*dG*dG*dA*dG*dA*d[5mC]*d[5mC]*e[5mC]*eT) [compound 435501]  % inhibition of human Factor 7 mRNA              51
2  435495 (antisense eG*eA*dG*dA*d[5mC]*d[5mC]*d[5mC]*dT*dG*dG*dT*dG*eT*eA) [compound 435495]  % inhibition of human Factor 7 mRNA              27
3  435678 (antisense eA*eG*dG*dT*d[5mC]*dG*dT*dG*d[5mC]*dT*d[5mC]*dG*e[5mC]*e[5mC]) [compound 435678]  % inhibition of human Factor 7 mRNA              67
4  435725 (antisense eG*e[5mC]*dA*dG*d[5mC]*d[5mC]*dT*dG*dA*dG*dG*d[5mC]*e[5mC]*eA) [compound 435725]  % inhibition of human Factor 7 mRNA              79
5  435728 (antisense eA*e[5mC]*dA*d[5mC]*dA*dT*dG*dG*dA*dG*dT*d[5mC]*eA*eG) [compound 435728]  % inhibition of human Factor 7 mRNA              16
6  435754 (antisense eT*e[5mC]*dA*dG*d[5mC]*dA*dA*dG*dA*dG*dT*dG*e[5mC]*eA) [compound 435754]  % inhibition of human Factor 7 mRNA              16

For each of the substances below, state % inhibition of human Factor 7 mRNA.
1. 435650 (antisense e[5mC]*e[5mC]*dG*dG*d[5mC]*d[5mC]*d[5mC]*dT*d[5mC]*dG*dA*dA*eG*eG) [compound 435650]
2. 435730 (antisense eT*eA*dA*dA*d[5mC]*dA*dA*d[5mC]*d[5mC]*dG*d[5mC]*d[5mC]*eT*eT) [compound 435730]
3. 435673 (antisense eA*eG*dA*d[5mC]*d[5mC]*dA*d[5mC]*d[5mC]*d[5mC]*dA*dG*dA*eT*eG) [compound 435673]
4. 435795 (antisense eA*e[5mC]*dA*d[5mC]*d[5mC]*d[5mC]*dG*dA*dG*dG*dT*dT*e[5mC]*eA) [compound 435795]

Resp:
1. 6
2. 49
3. 34
4. 66

* * *

# System: human Factor 7 mRNA
# assay-method-text: Inhibition of human Factor 7 mRNA by 2-10-2 MOE shortmers in HepB3 cells, electroporation, 1,000 nM
# Type: cell-based
# settings: electroporation, 1,000 nM oligonucleotide, approximately 24 hours, relative to untreated control cells
In the oligonucleotide strings, read from the 5' end, every base follows the letter of its sugar. An asterisk marks phosphorothioate; unmarked linkages are phosphodiester. Other units and linkages are bracketed, terminal groups are in braces. A string of capitals states the bases alone. e = 2'-O-(2-methoxyethyl) (MOE); [5mC] = 5-methylcytosine; d = 2'-deoxy (DNA)
Recorded % inhibition of human Factor 7 mRNA determines the label; the label ranges are class 1 (below 5%), class 2 (5% to below 50%), class 3 (50% or more)

Take a look at these entries with their results.
> print(dat)
                                  substance    class
1  435782 (antisense e[5mC]*eG*dT*dG*d[5mC]*dG*d[5mC]*dT*d[5mC]*dA*dG*d[5mC]*eT*e[5mC]) [compound 435782]  class 2
2  435496 (antisense eG*eG*dA*dG*dA*d[5mC]*d[5mC]*d[5mC]*dT*dG*dG*dT*eG*eT) [compound 435496]  class 2
3  435747 (antisense eA*eT*dA*dT*d[5mC]*dA*dT*dT*dG*dA*d[5mC]*dA*eA*eG) [compound 435747]  class 1
4  435726 (antisense eG*e[5mC]*dA*dA*dT*dG*dA*dA*dG*dG*d[5mC]*dA*eG*eA) [compound 435726]  class 2
5  435786 (antisense eA*eG*dG*dT*dG*dA*d[5mC]*d[5mC]*d[5mC]*dG*dT*dG*eA*eG) [compound 435786]  class 3
6  435758 (antisense e[5mC]*e[5mC]*d[5mC]*dT*dG*dA*dG*d[5mC]*dT*dG*dG*dG*e[5mC]*eA) [compound 435758]  class 1
7  435683 (antisense eA*eT*dG*dT*d[5mC]*dG*dT*dG*dG*dT*dT*dG*eG*eT) [compound 435683]  class 1

Now let's try a different one.
Req: Band assignment needed for 435768 (antisense eG*e[5mC]*d[5mC]*dT*dG*dG*dA*dT*dG*d[5mC]*dT*dG*eG*eT) [compound 435768] please.
Resp: class 3

* * *

# Tested on: human Factor 7 mRNA
# assay-method-text: Dose-dependent antisense inhibition of human Factor 7 in HepB3 cells, transfection with lipofectin
# Type: cell-based
# settings: Example 5; HepB3, lipofectin, 12.5 nM, ~16 h
In the oligonucleotide strings, read from the 5' end, every base follows the letter of its sugar. An asterisk marks phosphorothioate; unmarked linkages are phosphodiester. Other units and linkages are bracketed, terminal groups are in braces. A string of capitals states the bases alone. e = 2'-O-(2-methoxyethyl) (MOE); [5mC] = 5-methylcytosine; d = 2'-deoxy (DNA)
measurement-label: percent inhibition of Factor 7 mRNA, 12.5 nM (%)
Answers are plain numbers, in %.

Some entries whose results are on file:
substance	target-of-assay	numeric-result
416508 (antisense e[5mC]*eG*eA*eG*eT*dT*d[5mC]*dT*dG*d[5mC]*dA*dG*dG*dA*dG*e[5mC]*eG*eG*e[5mC]*e[5mC]) [compound 416508]	human Factor 7 mRNA	51
416455 (antisense e[5mC]*eG*e[5mC]*e[5mC]*eG*dG*d[5mC]*dT*d[5mC]*dT*dG*d[5mC]*dT*d[5mC]*dA*eT*e[5mC]*e[5mC]*e[5mC]*e[5mC]) [compound 416455]	human Factor 7 mRNA	44
416507 (antisense eG*eG*eT*eT*eA*d[5mC]*dT*dG*dA*dG*d[5mC]*dG*d[5mC]*dG*dG*eA*eA*eG*eA*eA) [compound 416507]	human Factor 7 mRNA	53
407935 (antisense eA*eT*eG*e[5mC]*eA*dT*dG*dG*dT*dG*dA*dT*dG*d[5mC]*dT*eT*e[5mC]*eT*eG*eA) [compound 407935]	human Factor 7 mRNA	53
407643 (antisense e[5mC]*eA*e[5mC]*eA*e[5mC]*dA*dT*dG*dG*dA*dG*dT*d[5mC]*dA*dG*e[5mC]*eA*eT*e[5mC]*eG) [compound 407643]	human Factor 7 mRNA	49

Please turn your attention to the following entry.
Req: Given 407900 (antisense e[5mC]*e[5mC]*e[5mC]*e[5mC]*eA*d[5mC]*dA*dA*dT*dT*d[5mC]*dG*dG*d[5mC]*d[5mC]*eT*eT*eG*eG*eG) [compound 407900] , state its recorded percent inhibition of Factor 7 mRNA, 12.5 nM.
Resp: 36

* * *

# Tested on: human Factor 7 mRNA
# assay-method-text: Antisense inhibition of human Factor 7 mRNA in HepB3 cells, lipofectin, 50 nM, real-time RT-PCR
# Format: cell-based
# settings: HepB3 cells; gapmers targeted to nucleobases 11830 to 11869 of SEQ ID NO: 1 (Table 9)
In the oligonucleotide strings, read from the 5' end, every base follows the letter of its sugar. An asterisk marks phosphorothioate; unmarked linkages are phosphodiester. Other units and linkages are bracketed, terminal groups are in braces. A string of capitals states the bases alone. e = 2'-O-(2-methoxyethyl) (MOE); [5mC] = 5-methylcytosine; d = 2'-deoxy (DNA)
# if value of % Inhibition of human Factor 7 mRNA levels reaches 50%, tag yes; if it stays below, tag no

Take a look at these entries with their results.
> print(dat)
                                  substance      target.of.assay  class
1  422089 (antisense eG*eT*e[5mC]*eA*eG*dG*dG*d[5mC]*dT*dG*dG*dT*dT*dT*dT*eG*eG*eA*eG*eG) [compound 422089]  human Factor 7 mRNA     no
2  422238 (antisense eA*e[5mC]*dA*dA*dT*dG*dG*dT*d[5mC]*dA*dG*dG*dG*d[5mC]*dT*eG*eG*eT*eT*eT) [compound 422238]  human Factor 7 mRNA    yes
3  422101 (antisense eT*eG*eA*eG*eG*dA*dG*dA*d[5mC]*dA*dA*dT*dG*dG*dT*e[5mC]*eA*eG*eG*eG) [compound 422101]  human Factor 7 mRNA     no
4  422250 (antisense e[5mC]*eT*dG*dG*d[5mC]*dT*dG*dA*dG*dG*dA*dG*dA*d[5mC]*dA*eA*eT*eG*eG*eT) [compound 422250]  human Factor 7 mRNA    yes
5  422093 (antisense eA*eA*eT*eG*eG*dT*d[5mC]*dA*dG*dG*dG*d[5mC]*dT*dG*dG*eT*eT*eT*eT*eG) [compound 422093]  human Factor 7 mRNA     no
6  422097 (antisense eG*eA*eG*eA*e[5mC]*dA*dA*dT*dG*dG*dT*d[5mC]*dA*dG*dG*eG*e[5mC]*eT*eG*eG) [compound 422097]  human Factor 7 mRNA    yes

Now let's try a different one.
Req: Please indicate if the recorded % Inhibition of human Factor 7 mRNA levels for 422088 (antisense eT*e[5mC]*eA*eG*eG*dG*d[5mC]*dT*dG*dG*dT*dT*dT*dT*dG*eG*eA*eG*eG*eA) [compound 422088] meets or exceeds 50%.
Resp: no
